Molecular target: Feline_OSMR_hlgG1_Fc (feline)
Sequence (chain, as listed by the source limits assumed, form in doubt): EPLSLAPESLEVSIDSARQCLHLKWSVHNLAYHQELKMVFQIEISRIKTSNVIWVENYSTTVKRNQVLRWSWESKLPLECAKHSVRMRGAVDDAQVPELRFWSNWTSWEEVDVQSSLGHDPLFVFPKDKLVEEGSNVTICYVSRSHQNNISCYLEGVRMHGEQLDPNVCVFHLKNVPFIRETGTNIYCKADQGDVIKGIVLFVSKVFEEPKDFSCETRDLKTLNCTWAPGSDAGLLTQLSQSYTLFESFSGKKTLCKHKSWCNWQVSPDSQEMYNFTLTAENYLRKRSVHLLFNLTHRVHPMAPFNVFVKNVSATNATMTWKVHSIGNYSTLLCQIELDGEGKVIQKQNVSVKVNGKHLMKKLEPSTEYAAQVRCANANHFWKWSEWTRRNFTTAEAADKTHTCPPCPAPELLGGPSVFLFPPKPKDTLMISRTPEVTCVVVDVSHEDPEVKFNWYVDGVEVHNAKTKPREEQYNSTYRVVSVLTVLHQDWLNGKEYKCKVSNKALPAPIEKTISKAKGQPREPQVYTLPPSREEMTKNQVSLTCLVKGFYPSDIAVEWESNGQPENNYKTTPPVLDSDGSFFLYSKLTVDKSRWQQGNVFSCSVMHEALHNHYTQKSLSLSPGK
Experiment: SPR Biacore
Doc: threshold 300000 M⁻¹ s⁻¹ (exclusive). Items with kon beneath it return met; others return not met.

# BINDER, GROUP
rows = [
    ("Mu_02D09_VL (SEQ ID NO: 33)_W94A (antibody, V domains shown) VH: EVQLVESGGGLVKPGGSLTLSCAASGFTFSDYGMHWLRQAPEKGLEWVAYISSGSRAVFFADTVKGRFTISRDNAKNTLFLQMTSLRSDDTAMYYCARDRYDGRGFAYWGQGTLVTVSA VL: DIVLTQSPATLSVTPGDSVSLSCRASQSISNNLHWYQQTSHESPRLLITYASQSISGIPSRFSGSGSGTDFTLSINSVETEDFGMYFCQQSNSAPLTFGAGTKLELKR", "met"),
    ("Mu_09E09_VH (SEQ ID NO: 35)_P100A (antibody, V domains shown) VH: DVKLVESGEGLVKPGGSLKLSCAASGFTFSSYAMSWVRQTPEKRLEWVAYISSGGDYIYYADTVKGRFTISRDNARNTLYLQMSSLKSEDTAMYYCTRDAITGTFAYWGQGTLVTVSA VL: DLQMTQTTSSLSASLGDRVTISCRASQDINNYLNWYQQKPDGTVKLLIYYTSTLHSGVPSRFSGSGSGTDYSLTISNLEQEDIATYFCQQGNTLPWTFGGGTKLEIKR", "not met"),
    ("Mu_19F07_VH (SEQ ID NO: 47)_Y33A (antibody, V domains shown) VH: EVKLVESEGGLVQPGSSMKLSCTASGFTFSDYAMAWVRQVPEKGLEWVANINYDGSSTYYLDSLKSRFIISRDNAKNILYLQMSSLKSEDTATYYCARGLTWDFDVWGTGTTVTVSS VL: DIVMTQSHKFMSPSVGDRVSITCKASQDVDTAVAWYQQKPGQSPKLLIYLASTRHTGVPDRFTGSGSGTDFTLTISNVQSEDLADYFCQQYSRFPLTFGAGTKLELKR", "met"),
    ("Mu_02D09_VL (SEQ ID NO: 33)_S56A (antibody, V domains shown) VH: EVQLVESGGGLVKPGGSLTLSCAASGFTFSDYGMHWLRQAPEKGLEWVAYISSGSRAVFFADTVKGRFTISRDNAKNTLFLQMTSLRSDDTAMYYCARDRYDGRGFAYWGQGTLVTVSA VL: DIVLTQSPATLSVTPGDSVSLSCRASQSISNNLHWYQQTSHESPRLLITYASQSIAGIPSRFSGSGSGTDFTLSINSVETEDFGMYFCQQSNSWPLTFGAGTKLELKR", "met"),
    ("Mu_19F07_VL (SEQ ID NO: 49)_Q90A (antibody, V domains shown) VH: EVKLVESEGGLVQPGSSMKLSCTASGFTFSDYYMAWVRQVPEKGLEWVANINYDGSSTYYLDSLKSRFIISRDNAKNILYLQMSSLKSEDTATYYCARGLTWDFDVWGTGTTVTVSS VL: DIVMTQSHKFMSPSVGDRVSITCKASQDVDTAVAWYQQKPGQSPKLLIYLASTRHTGVPDRFTGSGSGTDFTLTISNVQSEDLADYFCQAYSRFPLTFGAGTKLELKR", "met"),
]
